biological target: Pro-neuregulin-1, membrane-bound isoform (Homo sapiens) (UniProt Q02297); test: NRG1 binders on small-molecule microarrays, primary screen, psychiatric disease protein project, biochemical, small-molecule microarray, fluorescence 635/667 (AID 1075); settings: NRG1 binding, 635 nm fluorescence, higher = more signal;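 also: score combines 667 nm spot fluorescence with signal to noise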
Sequence (Q02297 whole entry, looked up, canonical isoform): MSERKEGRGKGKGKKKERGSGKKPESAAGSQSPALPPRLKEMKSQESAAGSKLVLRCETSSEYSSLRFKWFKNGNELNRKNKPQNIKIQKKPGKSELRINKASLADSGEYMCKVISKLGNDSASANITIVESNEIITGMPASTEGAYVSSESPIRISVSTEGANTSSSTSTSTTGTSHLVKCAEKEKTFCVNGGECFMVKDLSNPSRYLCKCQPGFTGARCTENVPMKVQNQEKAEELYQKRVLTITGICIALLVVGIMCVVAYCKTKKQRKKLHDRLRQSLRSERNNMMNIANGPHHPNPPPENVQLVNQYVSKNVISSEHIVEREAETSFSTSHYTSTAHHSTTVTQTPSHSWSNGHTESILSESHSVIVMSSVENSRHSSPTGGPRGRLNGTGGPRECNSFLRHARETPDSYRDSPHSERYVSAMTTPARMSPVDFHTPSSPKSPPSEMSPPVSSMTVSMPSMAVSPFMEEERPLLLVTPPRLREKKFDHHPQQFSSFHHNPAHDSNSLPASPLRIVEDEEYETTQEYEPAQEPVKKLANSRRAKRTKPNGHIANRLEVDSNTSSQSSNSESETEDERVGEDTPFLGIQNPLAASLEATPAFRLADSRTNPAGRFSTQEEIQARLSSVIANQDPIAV
recorded endpoint: composite z-score
Output spec: single numeric token, no unit.

Reference set, count: 2
[[record]]
molecule = "O=C1C2C=CC(C(O)C(c3ccccc3)c3ccccc3)N(n3cnnc3)C2C(=O)N1Cc1ccccc1 (stereo not drawn)"
recorded_endpoint = "composite z-score"
number = 0.429

[[record]]
molecule = "COc1ccc(C(=O)Nc2ccc(CN3C(=O)[C@@]4(O[C@@H](CCO)[C@H]([Si](C)(C)c5ccc(OC)cc5)[C@H]4C)c4ccccc43)cc2)cc1"
recorded_endpoint = "composite z-score"
number = 1.22


Okay, next one:
-- ask Give reported composite z-score value for O=C1O[C@H](c2ccccc2)[C@H](c2ccccc2)N2[C@H]1[C@@H](C(=O)Nc1nc3ccccc3s1)[C@]1(C(=O)Nc3ccc(C#CCCO)cc31)[C@H]2c1ccc(OCCO)cc1
-- reply 0.887

* * *

molecular target: Neurogenic locus notch homolog protein 3 (Homo sapiens); experiment: NOTCH3 binders on small-molecule microarray, primary screen, biochemical, 635/667 nm fluorescence (AID 1096); conditions: NOTCH3 binding, 635 nm fluorescence, higher = more signal
recorded endpoint: composite z-score
Output spec: single numeric token, no unit.

[[record]]
molecule = "C[C@@H]1ON(c2cccc(C(=O)OC(C)(C)C)c2)[C@H](c2ccc(Br)cc2)[C@H]1C(=O)N1C(=O)OC[C@H]1Cc1ccccc1"
target_desc = "Neurogenic locus notch homolog protein 3 (Homo sapiens)"
number = 1.12

[[record]]
molecule = "CCCC#C[Si](O[C@H](CC)c1cn([C@H](CO)Cc2ccccc2)nn1)(C(C)C)C(C)C"
target_desc = "Neurogenic locus notch homolog protein 3 (Homo sapiens)"
number = 0.584

[[record]]
molecule = "COc1ccc(CCNC(=O)[C@@H]2c3ccccc3C(=O)N(C3Cc4ccccc4C3)[C@H]2c2ccc(CO)cc2)cc1"
target_desc = "Neurogenic locus notch homolog protein 3 (Homo sapiens)"
number = -0.145

[[record]]
molecule = "C=CCOC(=O)[C@@H]1[C@H]2C(=O)O[C@H](c3ccccc3)[C@H](c3ccccc3)N2[C@H](c2ccc(OCCOC(=O)[C@@H]3C[C@@H]4C(=O)N[C@@H](CCCCN(C)C)C(=O)N4[C@@H]3c3ccc(O)cc3)cc2)[C@@]12C(=O)Nc1ccc(I)cc12"
target_desc = "Neurogenic locus notch homolog protein 3 (Homo sapiens)"
number = 1.11

[[record]]
molecule = "O=C1NC(=O)C2C1C=CC(C(O)c1ccccc1)N2Nc1ccc(Cl)cc1Cl (configuration not stated)"
target_desc = "Neurogenic locus notch homolog protein 3 (Homo sapiens)"
number = 1.12

[[record]]
molecule = "COc1ccc([Si](C)(C)[C@H]2[C@H](CC(=O)N3CCC[C@H]3CO)O[C@@]3(C(=O)N(Cc4cccc(N5C(=O)c6cccc7cccc5c67)c4)c4ccccc43)[C@@H]2C)cc1"
target_desc = "Neurogenic locus notch homolog protein 3 (Homo sapiens)"
number = 1.05


-- ask Give reported composite z-score value for COC(=O)[C@@]1(Cc2ccc(OC)cc2)[C@H]2c3cc(C(=O)N(C)C)n(Cc4cccc5ccccc45)c3C[C@H]2CN1C(=O)c1ccccc1
-- reply 0.481
